target-of-assay: T1, CD27 protein (His-tagged, Sino Biological Inc. 10039-H08B1) (human, UniProt P26842 20-192)
T1 construct: bought; coated onto ELISA plates; also called human CD27; recombinant protein; not shown: His tag
T1 sequence (looked up): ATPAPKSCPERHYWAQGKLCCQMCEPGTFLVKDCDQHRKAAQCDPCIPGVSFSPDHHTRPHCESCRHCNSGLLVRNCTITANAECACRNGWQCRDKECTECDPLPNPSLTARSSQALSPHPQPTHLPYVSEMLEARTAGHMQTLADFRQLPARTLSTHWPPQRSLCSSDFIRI
method-description: ELISA on coated His-tagged CD27; further: test concentration or dose not given here
Here, each record is paired with measured ELISA [abs. corr.] data.

>  <binder>
P018.S.01.A.H02 (antibody, V domains shown, V regions on human Ig constant parts; also called AB27_25) VH: QSVEESGGRLVTPGTPLTLTCTASGFSLSSYHMQWVRQAPGKGLEWIGIIYAGSGNTWYASWAKGRFTISKTSTTVDLKITSPTTEDTAAYFCARQPGGDASDTQLDLWGQGTLVTVSS VL: AAVLTQTASPVSAAVGGTVTINCQSSQSVFDHNQLSWFQHKPGQSPKLLIYRASTLASGVPSRFKGSGSGTQFTLTISDVQSDDAATYYCLGGYSSSSDTVFGGGTEVVVK

>  <ELISA [abs. corr.]>
3.3 abs. corr.

$$$$

Incoming: // returns reported ELISA [abs. corr.] for input P018.S.05.A.B02 (antibody, V domains shown, V regions on human Ig constant parts; also called AB27_83) VH: QSLEESGGRLVTPGTPLTLTCKVSGFSLSSYDMIWVRQAPGKGLEWIGIVSTGGSAGYASWAKGRFTITKTSTTVDLKITSPTTEDTATYFCARIISGGRDLWGPGTLVTVSS VL: DIVMTQTPASVEAAVGGTVTIKCQASESISSRLAWYQQKPGQPPKLLIYSASTLAFGVSSRFKGSGSGTQFTLTISDLESADAATYYCQSYYYSSTASYASNNAFGGGTEVVVK
Outgoing: 3.32 abs. corr.

Incoming: Moving on to P018.S.07.A.E05 (antibody, V domains shown, V regions on human Ig constant parts; also called AB27_126) VH: QSLEESGGRLVTPGGSLTLTCTVSGIDLSSYAMIWVRQAPGKGLEWIGYIYGGSGSTWYASWAKGRFTISKTSSTTVDLKMTSLTTEDTATYFCARAYDSGYIGNSFYIFDPWGPGTLVTVSS VL: DIVMTQTPASVSATVGGTVTIKCQASQSISSRLAWYQQKPGQPPKLLIYSASTLASGVSSRFRGSGSGTEFTLTISDLESADGATYYCAGYGGLGITAFGGGTEVVVK
Outgoing: 3.2 abs. corr.
